Give Fat Mass (g) for every item shown.
test system: naturally aged C57BL6J mice; test: Frailty (open field, wire hanging, grip strength, muscle and fat tissue) in naturally aged mice, Example 21-7, Table 23; assay type: in vivo, mouse; settings: inguinal and epididymal fat, untreated aged 0.82 (±0.19)

Param item = COC(=O)[C@]12CCC(C)(C)C[C@H]1[C@H]1C(=O)C=C3[C@@]4(C)C=C(C#N)C(=O)C(C)(C)[C@@H]4CC[C@@]3(C)[C@]1(C)CC2 [LX-2102, Bardoxolone methyl] ; retrieve measured Fat Mass (g).
0.97 (±0.16) g

Param item = Cc1cccc([C@H](C)c2cnc[nH]2)c1C [LX-6807, Dexmedetomidine] ; retrieve measured Fat Mass (g).
1.08 (±0.15) g

Param item = CC1(C)CC[C@]2(NC(=O)C(C)(F)F)CC[C@]3(C)[C@H](C(=O)C=C4[C@@]5(C)C=C(C#N)C(=O)C(C)(C)[C@@H]5CC[C@]43C)[C@@H]2C1 [LX-2101, Omaveloxolone] ; retrieve measured Fat Mass (g).
1.15 (±0.09) g

Param item = O=C1C2CCN(CC2)C1CNC(=O)C(F)(F)F (centres unmarked) [LX-5701] ; retrieve measured Fat Mass (g).
0.88 (±0.1) g

Param item = CCCC\C=C/C=C/C=C\CCCCCCCC(=O)O [LX-2707, Punicic acid] ; retrieve measured Fat Mass (g).
0.98 (±0.20) g

###

Give Heart Sur2a mRNA for every item shown.
test system: naturally aged mice; assay: Anti-aging evaluation in naturally aged mice, Example 31, Table 55; type: in vivo, mouse; settings: heart, untreated = 1.0;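 also: Vehicle-dosed control mice received solution alone at matching volume, values compare test-compound-treated aged mice against that control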
Hi! Could you send only the number? It should be in fold, unit omitted.

Param item = NC(=O)c1ncn([C@@H]2O[C@H](CO)[C@@H](O)[C@H]2O)n1 [LX-6537, Ribavirin] ; retrieve measured Heart Sur2a mRNA.
1.6

Param item = Nc1ccc(O)c(C(=O)O)c1 [LX-9118, 5-aminosalicylic acid] ; retrieve measured Heart Sur2a mRNA.
1.7

Param item = CCNCc1nc2c(O)c(Cl)cc(Cl)c2c(=O)n1C [LX-9421] ; retrieve measured Heart Sur2a mRNA.
2.1

Param item = C=C1CC[C@@H]2[C@](C)(CO)[C@H](O)CC[C@@]2(C)[C@@H]1C/C=C1/C(=O)OC[C@H]1O [LX-6800, Andrographolide] ; retrieve measured Heart Sur2a mRNA.
2.3

Param item = O=C(C(C[N+](=O)[O-])=NO)N1CCN(C(c2ccc(Cl)cc2)c2ccc(Cl)cc2)CC1 [LX-403] ; retrieve measured Heart Sur2a mRNA.
2.9

Param item = C[S+]([O-])CCCCN=C=S (centres unmarked) [LX-7103, Sulforaphane] ; retrieve measured Heart Sur2a mRNA.
2.1

Param item = CN(Cc1cnc2nc(N)nc(N)c2n1)c1ccc(C(=O)N[C@@H](CCC(=O)O)C(=O)O)cc1 [LX-2901, Methotrexate] ; retrieve measured Heart Sur2a mRNA.
1.7

Param item = C[N+](C)(C)CCO.C[N+](C)(C)CCO.[SH-].[SH-].[S]=[Mo]=[S] [LX-2601] ; retrieve measured Heart Sur2a mRNA.
2.7

###

tested on: senescent A549 cells; experiment: Viability of senescent A549 cells (CellTiter-Glo), Example 18, Table 15; details: […]; doxorubicin-induced senescent A549 cells; 0 μM = 100%
Give Survival (%) for every item shown.
Hi! Could you send only the number? It should be in %, unit omitted.

// map CCNCc1nc2c(O)c(Cl)cc(Cl)c2c(=O)n1C to recorded Survival (%) (system: senescent A549 cells)
83.3

// map CN(CCOc1ccc(CC2SC(=O)NC2=O)cc1)c1ccccn1 (centres unmarked) to recorded Survival (%) (system: senescent A549 cells)
78.3

// map CCCCCC/C=C\CCCCCCCCCC(=O)N[C@H]1[C@H](OC[C@H]2O[C@H](OP(=O)([O-])[O-])[C@H](NC(=O)CC(=O)CCCCCCCCCCC)[C@@H](OCCCCCCCCCC)[C@@H]2O)O[C@H](COC)[C@@H](OP(=O)([O-])[O-])[C@@H]1OCC[C@@H](CCCCCCC)OC.[Na+].[Na+].[Na+].[Na+] [LX-9136, Eritoran tetrasodium] to recorded Survival (%) (system: senescent A549 cells)
83.4

// map Nc1cc(COc2c(Cl)cc(C[C@H](N)C(=O)O)cc2Cl)c2oc(-c3ccccc3)nc2c1 to recorded Survival (%) (system: senescent A549 cells)
72.4

// map CCCCCCCCCCCCCCCCCCCC(=O)N[C@H]1CC[C@@]2(C)[C@@H](C1)C[C@@H](O)[C@@H]1[C@@H]2C[C@H](O)[C@]2(C)[C@@H]([C@H](C)CCC(=O)O)CC[C@@H]12 to recorded Survival (%) (system: senescent A549 cells)
104.0

###

test system: senescent cells; assay: Viability of senescent cells (CellTiter-Glo), Example 17, Table 13; details: Homo sapiens, read-out: Survival (%)
outcome-measure: viability at 1.1 µM
A complete answer gives the number followed by the unit.

Param item = C#CC(=O)N1[C@@H](CCCC)Cc2cc(OC)ccc2[C@@H]1c1ccc(NC23CC4CC(CC(C4)C2)C3)cc1 ; retrieve measured viability at 1.1 µM.
75.4%

Param item = CN[C@H](CC(C)C)C(=O)N[C@H]1C(=O)N[C@@H](CC(N)=O)C(=O)N[C@H]2C(=O)N[C@H]3C(=O)N[C@H](C(=O)N[C@H](C(=O)O)c4cc(O)cc(O)c4-c4cc3ccc4O)[C@H](O)c3ccc(c(Cl)c3)Oc3cc2cc(c3O[C@@H]2O[C@H](CO)[C@@H](O)[C@H](O)[C@H]2O[C@H]2C[C@](C)(N)[C@H](O)[C@H](C)O2)Oc2ccc(cc2Cl)[C@H]1O ; retrieve measured viability at 1.1 µM.
106%

###

system: senescent A549 cells; assay: Viability of senescent A549 cells (CellTiter-Glo), Example 18, Table 15; settings: 1.1 μM; doxorubicin-induced senescent A549 cells; 0 μM = 100%
outcome-measure: Survival (%)
Hi! Could you send only the number? It should be in %, unit omitted.

Param item = CCCCCC/C=C\CCCCCCCCCC(=O)N[C@H]1[C@H](OC[C@H]2O[C@H](OP(=O)([O-])[O-])[C@H](NC(=O)CC(=O)CCCCCCCCCCC)[C@@H](OCCCCCCCCCC)[C@@H]2O)O[C@H](COC)[C@@H](OP(=O)([O-])[O-])[C@@H]1OCC[C@@H](CCCCCCC)OC.[Na+].[Na+].[Na+].[Na+] [LX-9136, Eritoran tetrasodium] ; retrieve measured Survival (%).
91.1

Param item = CCO[C@@H](Cc1ccc(OCCn2c(C)ccc2-c2ccc(SC)cc2)cc1)C(=O)[O-].CCO[C@@H](Cc1ccc(OCCn2c(C)ccc2-c2ccc(SC)cc2)cc1)C(=O)[O-].[Mg+2] ; retrieve measured Survival (%).
94.6

###

test system: senescent cells; test: Viability of senescent cells (CellTiter-Glo), Example 17, Table 13; conditions: Homo sapiens, read-out: Survival (%)
Give viability at 1.1 µM for every item shown.
Hi! Could you send only the number? It should be in %, unit omitted.

Param item = CCOc1cc(CC(=O)N[C@@H](CC(C)C)c2ccccc2N2CCCCC2)ccc1C(=O)O [LX-9302, Repaglinide] ; retrieve measured viability at 1.1 µM.
99.7

Param item = Cc1ncc([N+](=O)[O-])n1CCO [LX-9107, Metronidazole] ; retrieve measured viability at 1.1 µM.
106

Param item = CN(C)C[C@@H]1CCn2cc(c3ccccc32)C2=C(C(=O)NC2=O)c2cn(c3ccccc23)CCO1 [LX-9339, Ruboxistaurin] ; retrieve measured viability at 1.1 µM.
55.6

Param item = C[C@@H](C(=O)Nc1ccc(Cl)cc1)[C@H]1CC[C@@H](c2ccnc3ccc(F)cc32)CC1 [LX-8805, Linrodostat] ; retrieve measured viability at 1.1 µM.
99.1

Param item = C=C(C)[C@@H]1CC[C@]2(C)CC[C@]3(C)[C@H](CC[C@@H]4[C@@]5(C)CC[C@H](O)C(C)(C)[C@@H]5CC[C@]43C)[C@@H]12 [LX-5433, Lupeol] ; retrieve measured viability at 1.1 µM.
108

Param item = N[C@@H](CCC(=O)N[C@@H](CS(=O)(=O)CCOP(=O)(N(CCCl)CCCl)N(CCCl)CCCl)C(=O)N[C@@H](C(=O)O)c1ccccc1)C(=O)O [LX-7463, Canfosfamide] ; retrieve measured viability at 1.1 µM.
88.8

Param item = Nc1ccc(/C=C/C(=O)NCc2cc3cc(-c4ccc(C(=O)N5CCC(F)(F)CC5)cc4)cc(-c4ccc(F)cc4)c3o2)cn1 [LX-8812, Padnarsertib] ; retrieve measured viability at 1.1 µM.
94.6

Param item = CCOC(=O)C1=CCCC[C@H]1S(=O)(=O)Nc1ccc(F)cc1Cl [LX-9137, Resatorvid] ; retrieve measured viability at 1.1 µM.
90.5

Param item = C=CC[C@@H]1/C=C(\C)C[C@H](C)C[C@H](OC)[C@H]2O[C@@](O)(C(=O)C(=O)N3CCCC[C@H]3C(=O)O[C@H](/C(C)=C/[C@@H]3CC[C@@H](O)[C@H](OC)C3)[C@H](C)[C@@H](O)CC1=O)[C@H](C)C[C@@H]2OC [LX-9314, Tacrolimus] ; retrieve measured viability at 1.1 µM.
84.7

Param item = COc1cc(Nc2ncc3c(n2)-c2ccc(Cl)cc2C(c2c(F)cccc2OC)=NC3)ccc1C(=O)O [LX-6203, Alisertib] ; retrieve measured viability at 1.1 µM.
75.1

Param item = COc1c(C)c2c(c(O)c1C/C=C(\C)CCC(=O)O)C(=O)OC2 [LX-9725, Mycophenolic acid] ; retrieve measured viability at 1.1 µM.
49.3

Param item = NCCCC(O)(P(=O)(O)O)P(=O)(O)O [LX-9105, Alendronate] ; retrieve measured viability at 1.1 µM.
102

Param item = C#Cc1nc(C(=O)N2[C@@H](CCCC)Cc3cc(C=C)ccc3[C@@H]2c2ccc(NC34CC5CC(CC(C5)C3)C4)cc2)cs1 [LX-5362] ; retrieve measured viability at 1.1 µM.
42.5
